Biological target: T1, Human IL-11 (human, UniProt P20809 22-199)
T1 construct: Recombinant human IL-11 (GenScript Cat. No. Z03108-1) or IL-11 secreted by human cells; the mature form is said to have 178 residues; also called recombinant human IL-11; endogenously produced IL-11
T1 sequence: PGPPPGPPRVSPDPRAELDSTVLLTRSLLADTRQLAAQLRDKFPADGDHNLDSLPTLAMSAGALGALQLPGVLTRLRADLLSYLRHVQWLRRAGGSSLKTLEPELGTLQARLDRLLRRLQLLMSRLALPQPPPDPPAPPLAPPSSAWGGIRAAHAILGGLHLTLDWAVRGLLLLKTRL
Test: ELISA
# hIL11 - average signal per record follows
Lab note: record just the number, no unit beside it.

binder="YU100-H09 (antibody) QVQLVQSGGGVVQPGRSLRLSCAASGFTFSSYAMHWVRQAPGKGLEWVAVISYDGSNKYYADSVKGRFTISRDNSKNTLYLQMNSLRAEDTAVYYCARIMGYDYGDYDVVDYWGQGTLVTVSSGSASAPKLEEGEFSEARVQSALTQPASVSGSPGQSITISCTGTSSDVGGYNYVSWYQQHPGKAPKLMIYDVSNRPSGVSNRFSGSKSGNTASLTISGLQAEDEADYYCCSYAGSYTWVFGGGTKLTVL" attribute_measured="hIL11 - average signal" value_reported=0.4
binder="YU100-G09 (antibody) EVQLVESGGGVVQPGRSLRLSCAASGFTFSSYGMHWVRQAPGKGLEWVAVISYDGSNKYYADSVKGRFTISRDNSKNTLYLQMNSLRAEDTAVYYCAKIGATDPLDYWGQGTLVTVSSGSASAPKLEEGEFSEARVQSALTQPRSVSGSPGQSVTISCTGTISDVGGYNYVSWYQQHPGKAPKLMIYDVTKRPSGVPDRFSGSKSGNTASLTISGLQAEDEAGYYCSSYAGSYTWVFGGGTKLTVL" attribute_measured="hIL11 - average signal" value_reported=0.802

Here is another binder to look at.
Record request: hIL11 - average signal value, item YU100-F01 (antibody) QVQLVQSGGGVVQPGRSLRLSCAASGFTFSSYGMHWVRQAPGKGLEWVAVISYDGSNKYYADSVKGRFTISRDNSKNTLYLQMNSLRAEDTAVYYCAKIGATDPLDYWGQGTLVTVSSGSASAPKLEEGEFSEARVQSALTQPASVSGSPGQSITISCTGTGSDVGAYDYVSWYQQHPGKAPKLMIYDVNNRPSGVSNRFSGSKSGNTASLTISGLQAEDEAEYYCSSFATSISWVFGGGTRLTVL
0.464

Data provenance: patent US20210230266A1
